system: human hepatocytes; test: Metabolic stability in human hepatocytes (HH CLint); assay type: in vitro ADME; details: 37 °C, 2 h
MEASURED ATTRIBUTE: HH CLint (μL/min/1E6)
Just the number please, in μL/min/1E6, no unit attached.

Item `COc1ccc(-c2nnc(C(=O)N3CC(Oc4ccc(CN(C)C)c(C)c4)C3)o2)cc1` was tested on human hepatocytes; the reported HH CLint is 16

Cn1ncc(NC(=O)C2CCCCC2C(=O)c2ccc(-c3cc[nH]n3)cc2)c1C(F)(F)F (stereo not drawn) tested on human hepatocytes gave HH CLint: 7

Form: item `COc1ccc(-c2nnc(C(=O)N3CC(Oc4ccc(CN5CC(C)(O)C5)c(C)c4)C3)o2)cc1` ; test system human hepatocytes; HH CLint: 17

Here Cn1cc(NC(=O)C2CCCCC2C(=O)c2ccc(-c3cc[nH]n3)cc2)c(C(F)F)n1 (stereo not drawn) was tested on human hepatocytes, and its HH CLint came to 9

Param item: COc1cc(NC(=O)C2CCCCC2C(=O)c2ccc(-c3cc[nH]n3)cc2)ncn1 (stereo not drawn) ; param system: human hepatocytes; output HH CLint: 22

So the reported HH CLint for Cn1ncc(NC(=O)C2CCCCC2C(=O)c2ccc(-c3cc[nH]n3)cc2)c1C(N)=O (stereo not drawn) , on human hepatocytes, turned out to be 4

// data source = paper PMC12587390
